Assay: Confirmation and Secondary Assay for Modulators of Hemoglobin Beta Chain Splicing at IVS2 654 locus (AID 910);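 further: HeLa cells stably carrying EGFP split by mutant beta-globin IVS2-654 intron; per-well total GFP intensity by laser scanning cytometry after 2-day treatment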;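 further: potency means the concentration at half of the fitted maximal effect; potency of activators that raise GFP signal by restoring correct splicing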
Conditions: HeLa EGFP-654 splicing reporter, GFP fluorescence, 48 h; series mostly up to 46.1 µM
The source made the active and inactive calls. The call rests on the fitted dose curve; in most records, active means well fitted activation curve with a large enough effect; inconclusive means small, poorly fitted or top-dose-only effect; inactive means flat fitted curve, though single readings scatter.
VALUE_KIND: Potency

Observe how each entry below is paired with its result.
- COc1c2ccoc2cc2oc(=O)ccc12: inactive
- O=C(O)c1cc(O)c2c(c1)[C@H]([C@H]1c3cc(C(=O)O)cc(O)c3C(=O)c3c(O[C@@H]4OC(CO)C(O)C(O)C4O)cccc31)c1cccc(O[C@@H]3OC(CO)C(O)C(O)C3O)c1C2=O (stereo partly specified): inactive
- CCCCCCCCCCCCC[N+](C)(C)Cc1ccccc1: inactive
- COC(=O)[C@@]1(C)CCC[C@@]2(C)c3ccc(O)c(C(C)C)c3CCC21 (stereo partly specified): inactive
- CC(=O)Oc1c2c(c3c(c1CC=C(C)C)O[C@@]14C(=CC5CC1C(C)(C)OC4(C/C=C(\C)C(=O)O)C5=O)C3=O)OC(C)(CCC=C(C)C)C=C2 (stereo partly specified): inactive

Just so you know, measured Potency for NC1=NC(S)C2N=CN=C2N1 (stereo unspecified) came out at 2000 nM (active)
